System: Plasmodium falciparum NF54 gametocytes
Test: viability index relative to DMSO control (fraction); higher = less gametocyte killing
Details: gametocyte stage: Stage III viability index; 12.5 µM; incubation time: 72 h
quantityKind: viability index
Format: numeric value only, no unit, no commentary.

Previously resolved entries follow.
COc1ccc(C(=O)Nc2ccc(Cl)cc2C(=O)Nc2ccncc2)cc1	0.915
Cc1ccc(N2C(=O)C3C(C2=O)C2(c4ccccc4)C(=O)C3(c3ccccc3)C(c3ccccc3)=C2c2ccccc2)cc1 (configuration not stated)	1.14
Cc1sc2ncnc(Sc3nc4ccccc4[nH]3)c2c1C	0.0354
COc1cccc(C=Cc2nc(=O)c3ccccc3o2)c1OC	0.809
COc1cccc(O)c1CN1CCC2(CCCN(Cc3ccc(F)cc3)C2)C1 (configuration not stated)	0.446

Inquiry: So what's the measured viability index for this one? CCOC(=O)c1cnc2c(CC)cccc2c1O
Reply text: 0.966

Inquiry: Check Cc1ccc(Nc2nc(NCCO)c3ccccc3n2)cc1C too.
Reply text: 0.584

Inquiry: Check Cc1ccc2c(C)nc(Nc3nc(C)cc(-c4ccccc4)n3)nc2c1 too.
Reply text: 0.318

----------
Examples of compounds with documented viability index follow.
Tested on: Plasmodium falciparum NF54 gametocytes
Test: viability index relative to DMSO control (fraction); higher = less gametocyte killing
Details: gametocyte stage: Stage I viability index; 12.5 µM; incubation time: 72 h
Format: numeric value only, no unit, no commentary.

Inquiry: So what's the measured viability index for this one? COCCNC(=O)c1ccc(OC2CCN(Cc3ccc(F)c(F)c3)CC2)c(Cl)c1
Reply text: 0.672

Inquiry: Check c1ccc2c(NCCc3c[nH]c4ccccc34)c3ccccc3nc2c1 too.
Reply text: 0.145

----------
Examples of compounds with documented viability index follow.
System: Plasmodium falciparum NF54 gametocytes
Assay: viability index relative to DMSO control (fraction); higher = less gametocyte killing
Conditions: gametocyte stage: Stage I viability index; 12.5 µM; incubation time: 72 h
Format: numeric value only, no unit, no commentary.

Previously resolved entries follow.
O=C(Cc1ccccc1)NC(c1ccc(Cl)cc1)c1c(O)ccc2ccccc12 (stereo not given)	0.0691
COc1ccc(C2NCCc3c2[nH]c2ccccc32)cc1CN1CCN(c2ccc(F)cc2)CC1 (stereo not given)	0.0297
O=C(Nc1ccccc1O)c1ccc(-c2ccc(Cl)cc2Cl)o1	0.0166
C[n+]1c2ccccc2nc2ccc(NCCO)cc21	0.0398
Cc1[nH]c(-c2ccc(F)cc2)cc1C(=O)NC1CCN(Cc2ccccc2)CC1	0.131
Clc1ccc2[nH]c3c(NCCCN4CCOCC4)ncnc3c2c1	0.0298

Inquiry: So what's the measured viability index for this one? Oc1c2c(nc3ccccc13)CCCC2
Reply text: 0.828

Inquiry: Check O=c1cc(NC2CCN(CCCc3ccccc3)CC2)c2cc(Cl)ccc2o1 too.
Reply text: 0.028

Inquiry: Check Oc1c(C(Nc2ccccn2)c2cccc(Oc3ccccc3)c2)ccc2cccnc12 (stereo not given) too.
Reply text: 1.06

Inquiry: Check CCOc1ccc2c(c1)CN(Cc1ccc(Cl)cc1)CO2 too.
Reply text: 0.0612

Inquiry: Check FC(F)(F)c1cccc(Nc2nc3ccccc3nc2Nc2cccc(C(F)(F)F)c2)c1 too.
Reply text: 0.0175

Inquiry: Check Cc1cc(NCCN2CCCCC2)c2ccc3ccccc3c2n1 too.
Reply text: 0.0508

Inquiry: Check N=c1c2ccccc2nnn1-c1cccc(C(F)(F)F)c1 too.
Reply text: 0.988

----------
Tested on: Plasmodium falciparum NF54 gametocytes
Assay: viability index relative to DMSO control (fraction); higher = less gametocyte killing
Conditions: gametocyte stage: Stage I viability index; 12.5 µM; incubation time: 72 h
quantityKind: viability index
Format: numeric value only, no unit, no commentary.

O=C(Nc1ccc(CN2CCOCC2)cc1)c1ccc(-c2cc(Cl)ccc2Cl)o1	0.302
CCCN(CCC)CCCNC(=O)c1cc2c(-c3ccc(OC)c(OC)c3)nn(C)c2s1	0.302
O=C(NC(c1ccccc1)c1ccc2cccnc2c1O)c1ccccc1 (stereo not given)	0.00552
COc1cccc(Cn2c(Oc3ccccc3)nc3c2c(=O)n(C)c(=O)n3C)c1	0.892

Inquiry: So what's the measured viability index for this one? COc1cccc(O)c1CN1CCC2(CCCN(Cc3ccc(F)cc3)C2)C1 (stereo not given)
Reply text: 0.0144

----------
Tested on: Plasmodium falciparum NF54 gametocytes
Experiment: viability index relative to DMSO control (fraction); higher = less gametocyte killing
Conditions: gametocyte stage: Stage V viability index; 12.5 µM; incubation time: 72 h
Examples of molecules with documented viability index follow.
Format: numeric value only, no unit, no commentary.

Previously resolved entries follow.
CCCC(c1nnnn1C1CCCCC1)N1CCN(C(=O)c2ccco2)CC1 (stereo unspecified)	1.16
CCc1ccc(CNCC(O)c2ccccc2)cc1 (stereo unspecified)	0.506
CC(C)OCc1cc(CN2CCN(c3cccc(Cl)c3)CC2)c(O)c2ncccc12	0.011
COc1nc(Nc2ccc(C(C)C)cc2)nc(OC)n1	0.967
O=C(Nc1ccc(CN2CCOCC2)cc1)c1ccc(-c2ccc(Br)cc2)o1	1.16
COc1ccc(CNC2CCN(c3ccc(NC(=O)c4cccc(Cl)c4)cc3)CC2)cc1OC	0.758
O=C(c1ccccc1F)N(Cc1ccc(Cl)cc1)c1ccccn1	0.967
CC(C)(C)c1ccc(O)c(CNC2CCCCC2)c1	0.462

Inquiry: So what's the measured viability index for this one? C=C(C)CCC(C)N1CCC(N2CCC(C(=O)NCCc3ccccc3)CC2)CC1 (stereo unspecified)
Reply text: 0.758

Inquiry: Check COc1ccc(C(=O)Nc2ccc(Cl)cc2C(=O)Nc2ccncc2)cc1 too.
Reply text: 0.692

Inquiry: Check CCCCNc1nc(NC(C)(C)C)nc(NC(C)(C)C)n1 too.
Reply text: 0.0649

Inquiry: Check COc1ccc(-c2nc(N3CCN(C(=O)C4CCCCC4)CC3)c3c4c(sc3n2)CCCC4)cc1 too.
Reply text: 0.779

Inquiry: Check CC1CCN(Cc2c(O)ccc3cc(-c4nc5ccccc5s4)c(=O)oc23)CC1 too.
Reply text: 1

Inquiry: Check COc1ccc(C(=O)C2CC2c2ccc(Cl)cc2)cc1 (stereo unspecified) too.
Reply text: 0.558

Inquiry: Check COc1cccc(O)c1CN1CCC2(CCCN(Cc3ccc(F)cc3)C2)C1 (stereo unspecified) too.
Reply text: 0.615

Inquiry: Check CN(C)c1ccc(C(O)(c2ccc(N(C)C)cc2)c2ccc(N(C)C)cc2)cc1 too.
Reply text: 0.11

----------
System: Plasmodium falciparum NF54 gametocytes
Assay: viability index relative to DMSO control (fraction); higher = less gametocyte killing
Settings: gametocyte stage: Stage III viability index; 12.5 µM; incubation time: 72 h
# viability index binned as c1 (below 0.6), c2 (0.6 to below 0.9), c3 (0.9 or more)

Recorded results for 4 compounds are shown here.
COc1cc(SC)ccc1C(=O)N1CCCC(C)C1 (centres undefined)	c3
Cc1cc(NCCN2CCCCC2)c2ccc3ccccc3c2n1	c1
CN1CCN(c2nc(Nc3ccc(O)cc3)nc3ccccc23)CC1	c2
CCC(c1ccccc1)c1nn2c(-c3cccs3)nnc2s1 (centres undefined)	c3

Alright, here's another compound for you.
Inquiry: GET /class?item= O=C(NNc1cc(N2CCCC2)nc(N2CCCC2)n1)c1ccccc1
Reply text: c1

----------
Examples of compounds with documented viability index follow.
Test system: Plasmodium falciparum NF54 gametocytes
Test: viability index relative to DMSO control (fraction); higher = less gametocyte killing
Conditions: gametocyte stage: Stage I viability index; 12.5 µM; incubation time: 72 h
Format: numeric value only, no unit, no commentary.

Previously resolved entries follow.
CCOC(=O)c1c(C)n(-c2ccccc2)c2ccc(OC(=O)c3cc(OC)c(OC)c(OC)c3)cc12	1.05
CSC1=NC(=Nc2c(C)cccc2C)C2(CCC(C(C)(C)C)CC2)N1c1ccc(Cl)cc1 (configuration not stated)	0.646
COc1nc(Nc2ccc(C(C)C)cc2)nc(OC)n1	1.18
CCc1ccc(Nc2cc(C)c3ccc(O)cc3n2)cc1	0.238
CCCCCCOC(=O)C1=C(C)NC(=O)NC1c1ccccc1F (configuration not stated)	0.924
COc1ccc(N2CCN(C(CNC(=O)C3CCCCC3)c3ccc4c(c3)OCO4)CC2)cc1 (configuration not stated)	0.912
O=C(CCc1ccccc1)c1ccccc1OCC(O)CN1CCCCC1 (configuration not stated)	0.00787
CCOC(=O)c1cnc2c(C)cccc2c1Nc1ccc(C(C)=O)cc1	1.16

Consider the additional compound presented here.
Inquiry: So what's the measured viability index for this one? CCOC(=O)c1c(C)n(-c2ccc(Cl)cc2)c2ccc(OC(=O)C=Cc3ccccc3)cc12
Reply text: 0.708

----------
Tested on: Plasmodium falciparum NF54 gametocytes
Assay: viability index relative to DMSO control (fraction); higher = less gametocyte killing
Conditions: gametocyte stage: Stage I viability index; 12.5 µM; incubation time: 72 h
Examples of molecules with documented viability index follow.
Format: numeric value only, no unit, no commentary.

Previously resolved entries follow.
COc1cc(SC)ccc1C(=O)N1CCCC(C)C1 (configuration not stated)	0.982
Cc1ccc(Cn2c(N3CCC(C(=O)NCc4cccs4)CC3)nc3ccccc32)cc1	0.593

Inquiry: So what's the measured viability index for this one? Cc1ccc(CSCc2ccc(C(=O)NC3CC3)o2)cc1
Reply text: 0.678

Inquiry: Check CCN(CC)CCNc1ncnc2c1[nH]c1ccc(Br)cc12 too.
Reply text: 0.0398

Inquiry: Check O=C(CSc1ccc2nnc(-c3cccc(F)c3)n2n1)Nc1ccc2c(c1)OCO2 too.
Reply text: 1.01

Inquiry: Check CCn1c2c(c(=N)c3c1CCC3)CCCC2 too.
Reply text: 0.441

Inquiry: Check Oc1c2c(nc3cc(-c4ccccc4)nn13)CCCC2 too.
Reply text: 1.07

src = the supplement of paper PMC4723716
